- Test system: K. oxytoca
- PROCEDURE_DETAILS: Antibacterial activity in vitro, agar plate dilution MIC
- Format: cell-based
- STATED_CONDITIONS: Klebsiella oxytoca; clinical isolate, Mueller-Hinton agar dilution
Listed next: entries and their corresponding MIC.
State the answer as a number, implicitly in mg/L.

C[C@@H]1COB2O[C@H](CN)c3cccc(c32)O1.Cl	1
CC1COc2cccc3c2B(O1)OC3CN.Cl (stereo not shown) [Compound B, reference compound]	2
C[C@H]1COB2O[C@H](CN)c3cccc(c32)O1.Cl	2
CC1COB2OC(CN)c3cccc(c32)O1.Cl (stereo not shown)	2
Cl.NCC1OB2OCC(CO)Oc3cccc1c32 (stereo not shown) [compound D, reference compound]	8

With those in mind, consider the next compound.
Exam item: What value of MIC has been recorded for this entry: C[C@@H]1COB2O[C@H](CN)c3cccc(c32)O1
Marked response: 1

###

Listed next: entries and their corresponding MIC.
- Test system: M. morganii
- PROCEDURE_DETAILS: Antibacterial activity in vitro, agar plate dilution MIC
- Assay type: cell-based
- STATED_CONDITIONS: Morganella morganii; clinical isolate, Mueller-Hinton agar dilution
State the answer as a number, implicitly in µg/mL.

CC1COB2O[C@H](CN)c3cccc(c32)O1.Cl (some centres unmarked) [EXAMPLE 2]	1

Exam item: What value of MIC has been recorded for this entry: C[C@@H]1COB2O[C@H](CN)c3cccc(c32)O1 [compound 4]
Marked response: 0.5

Exam item: What value of MIC has been recorded for this entry: CC1COB2OC(CN)c3cccc(c32)O1.Cl (centres unmarked) [EXAMPLE 1]
Marked response: 2

Exam item: What value of MIC has been recorded for this entry: CC1COc2cccc3c2B(O1)OC3CN.Cl (centres unmarked) [Compound B, reference compound]
Marked response: 4

Exam item: What value of MIC has been recorded for this entry: C[C@@H]1COB2O[C@H](CN)c3cccc(c32)O1.Cl [EXAMPLE 3]
Marked response: 1

###

- System: S. marcescens
- PROCEDURE_DETAILS: Antibacterial activity in vitro, agar plate dilution MIC
- Type: cell-based
- STATED_CONDITIONS: Serratia marcescens; clinical isolate, Mueller-Hinton agar dilution
Listed next: entries and their corresponding MIC.
State the answer as a number, implicitly in µg/mL.

Some solved entries appear below for comparison.
CC1COB2O[C@H](CN)c3cccc(c32)O1.Cl (some centres unmarked) [EXAMPLE 2]	4
CC1COB2OC(CN)c3cccc(c32)O1.Cl (centres unmarked) [EXAMPLE 1]	4
C[C@@H]1COB2O[C@H](CN)c3cccc(c32)O1 [compound 4]	2
C[C@H]1COB2O[C@H](CN)c3cccc(c32)O1.Cl [EXAMPLE 5]	4

With those in mind, consider the next compound.
Exam item: Item: C[C@@H]1COB2O[C@H](CN)c3cccc(c32)O1.Cl [EXAMPLE 3] Test system: S. marcescens Read-out: MIC Value: ?
Marked response: 4

###

- Tested on: Escherichia coli (E. coli)
- PROCEDURE_DETAILS: Antibacterial activity in vitro, agar plate dilution MIC
- Type: cell-based
- STATED_CONDITIONS: clinical isolate, Mueller-Hinton agar dilution
Listed next: entries and their corresponding MIC.
State the answer as a number, implicitly in µg/mL.

CC1COc2cccc3c2B(O1)OC3CN.Cl (centres unmarked) [Compound B, reference compound]	2
C[C@H]1COB2O[C@H](CN)c3cccc(c32)O1.Cl [EXAMPLE 5]	1
Cl.NCC1OB2OCC(CO)Oc3cccc1c32 (centres unmarked) [compound D, reference compound]	8

With those in mind, consider the next compound.
Exam item: Item: C[C@@H]1COB2O[C@H](CN)c3cccc(c32)O1.Cl [EXAMPLE 3] Test system: Escherichia coli (E. coli) Read-out: MIC Value: ?
Marked response: 1
